Target: HLA-A*6801 (human)
Experiment: competition with 125I probe peptide, purified HLA class I
Non-standard residues stand in square brackets, D forms with d. No end group written: not given here. Abu = CC[C@H](N)C(=O)O
endpointName: IC50 (nM)

binder | IC50, nM
BVYSPALNR (B at position 1 is alpha-amino butyric acid (in place of cysteine)) [1371.17 BVYSPALNR p53.124.B1V2R9] | 14.8

a. SV[Abu]MGGMNRR [1371.27 SVBMGGMNRR p53.240.V2B3]
b. RV[Abu]A[Abu]PGRDRK [1371.31 RVBABPGRDRK p53.273.B3B5K11]
Select one: a or b . Criterion: greater recorded IC50. Respond with the label that goes with your answer.
b

Measured values drawn from patent US20050196403A1 for this set.
